Cited source: patent US20240270821A1

# TARGET_SYSTEM: T1, human GIP receptor (human) (UniProt P48546)
# T1 sequence (looked up): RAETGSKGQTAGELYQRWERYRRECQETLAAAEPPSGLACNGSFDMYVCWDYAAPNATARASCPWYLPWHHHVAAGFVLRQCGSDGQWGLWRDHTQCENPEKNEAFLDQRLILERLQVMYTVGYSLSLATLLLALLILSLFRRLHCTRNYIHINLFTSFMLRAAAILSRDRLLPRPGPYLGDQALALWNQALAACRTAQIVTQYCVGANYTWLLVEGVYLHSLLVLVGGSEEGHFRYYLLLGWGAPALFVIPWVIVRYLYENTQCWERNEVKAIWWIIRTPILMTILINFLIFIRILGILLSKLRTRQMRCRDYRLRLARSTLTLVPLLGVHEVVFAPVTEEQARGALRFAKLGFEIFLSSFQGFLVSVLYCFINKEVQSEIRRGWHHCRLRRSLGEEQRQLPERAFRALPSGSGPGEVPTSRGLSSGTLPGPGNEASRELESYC
# TEST: cell-based or functional assay
Lab note: compare cAMP Rel EC50 (1% HSA) against 20 nM. Equal or greater, write criterion met. Smaller, write criterion not met.

# BINDER, CLASSIFICATION
measured = [
    ("YXQGTXTSDXSILLDKKAQXAFIEXLEEGGPSSGAPPPSGTGE (synthetic construct; SITE 2: note = 2-Aminoisobutyric Acid; SITE 6: note = alpha-methyl-2-fluoro-L-phenylalanine; SITE 10: note = 3-(4-Pyridyl)-L-alanine; SITE 17: note = Lysine is chemically modified through conjugation of the epsilon-amino group of the Lysine side chain with (gamma-Glu)2-CO-(CH2)1) [Example 664]", "criterion not met"),
    ("YXQGTFTSDXSKXLDKKAQXAFIEYLIEXGPSSGAPPPSGSE (Aib, 4Pal, αMeL; lipidated Lys; C-terminal amide; synthetic construct; SITE 2: note = 2-Aminoisobutyric Acid; SITE 10: note = 3-(4-Pyridyl)-L-alanine; SITE 13: note = alpha-methyl-leucine; SITE 17: note = Lysine is chemically modified through conjugation of the epsilon-amino group of the Lysine side chain with (gamma-Glu)2-CO-(CH2)16-CO2H; SITE 20:) [Example 904]", "criterion not met"),
    ("YXQGTXTSDXSILLDKKAQXAFIEXLEEGGPSSGAPPPSGGGE (synthetic construct; SITE 2: note = 2-Aminoisobutyric Acid; SITE 6: note = alpha-methyl-2-fluoro-L-phenylalanine; SITE 10: note = 3-(4-Pyridyl)-L-alanine; SITE 17: note = Lysine is chemically modified through conjugation of the epsilon-amino group of the Lysine side chain with (gamma-Glu)2-CO-(CH2)1) [Example 668]", "criterion not met"),
    ("YXQGTXTSDXXIXLDXKAAXEFIEXLIEGGPSSGAPPPSGEE (synthetic construct; SITE 2: note = 2-Aminoisobutyric Acid; SITE 6: note = alpha-methyl-2-fluoro-L-phenylalanine; SITE 10: note = 3-(4-Pyridyl)-L-alanine; SITE 11: note = alpha-methyl-L-serine; SITE 13: note = alpha-methyl-leucine; SITE 16: note = L-ornithine; SITE 17: note = Lysine is chemically mo) [Example 703]", "criterion not met"),
    ("YXQGTFTSDXSQXLDKKAQXAFIEYLLEAGPSSGAPPPSGX (synthetic construct; SITE 2: note = 2-Aminoisobutyric Acid; SITE 10: note = 3-(4-Pyridyl)-L-alanine; SITE 13: note = alpha-methyl-leucine; SITE 17: note = Lysine is chemically modified through conjugation of the epsilon-amino group of the Lysine side chain with (2-[2-(2-Amino-ethoxy)-ethoxy]-acetyl)) [Example 822]", "criterion not met"),
    ("YXQGTFTSDXSQXLDXKAQXQFIEXLIAXGPSSGEPPPSGSEE (not fully specified; Aib, 4Pal, Orn, Me4Pal, αMeY; lipidated Lys; C-terminal amide; synthetic construct; SITE 2: note = 2-Aminoisobutyric Acid; SITE 10: note = 3-(4-Pyridyl)-L-alanine; SITE 13: note = alpha-methyl-leucine; SITE 16: note = L-ornithine; SITE 17: note = Lysine is chemically modified through conjugation of the epsilon-amino group of the Lysine side chain with D-Glutami) [Example 1106]", "criterion not met"),
    ("YXQGTXTSDXXIXLDXKAQXNFIEXLQEGGPSSGEPPPEGTGE (synthetic construct; SITE 2: note = 2-Aminoisobutyric Acid; SITE 6: note = alpha-methyl-2-fluoro-L-phenylalanine; SITE 10: note = 3-(4-Pyridyl)-L-alanine; SITE 11: note = alpha-methyl-L-serine; SITE 13: note = alpha-methyl-leucine; SITE 16: note = L-ornithine; SITE 17: note = Lysine is chemically mo) [Example 527]", "criterion not met"),
    ("YXQGTFTSDFSXXLDKKAQXAFIEYLIEXGPSSGAPPPSGS (synthetic construct; SITE 2: note = 2-Aminoisobutyric Acid; SITE 12: note = (S)-2,3-diaminopropanoic acid; SITE 13: note = alpha-methyl-leucine; SITE 17: note = Lysine is chemically modified through conjugation of the epsilon-amino group of the Lysine side chain with (2-[2-(2-Amino-ethoxy)-ethoxy]-a)) [Example 800]", "criterion met"),
    ("YXQGTFTSDXSQXLDXKAQXAFIEXLIEGGPSSGAPPPSGSEEE (acylated Lys e-γGlu-C18 diacid; non-natural residues; C-terminal amide; synthetic construct; SITE 2: note = 2-Aminoisobutyric Acid; SITE 10: note = 3-(4-Pyridyl)-L-alanine; SITE 13: note = alpha-methyl-leucine; SITE 16: note = L-ornithine; SITE 17: note = Lysine is chemically modified through conjugation of the epsilon-amino group of the Lysine side chain with D-Glutami) [Example 1071]", "criterion met"),
    ("YXQGTXTSDXXIXLDXKAQXXFIEXLIEGGPSSGEPPPEGTGE (synthetic construct; SITE 2: note = 2-Aminoisobutyric Acid; SITE 6: note = alpha-methyl-2-fluoro-L-phenylalanine; SITE 10: note = 3-(4-Pyridyl)-L-alanine; SITE 11: note = alpha-methyl-L-serine; SITE 13: note = alpha-methyl-leucine; SITE 16: note = L-ornithine; SITE 17: note = Lysine is chemically mo) [Example 697]", "criterion not met"),
    ("YXQGTFTSDXSQXLDXKAQXAFIQXLIEGGPSSGAPPPSGSEEE (Glu-γGlu-C18 diacid on Lys; non-natural residues; amide; synthetic construct; SITE 2: note = 2-Aminoisobutyric Acid; SITE 10: note = 3-(4-Pyridyl)-L-alanine; SITE 13: note = alpha-methyl-leucine; SITE 16: note = L-ornithine; SITE 17: note = Lysine is chemically modified through conjugation of the epsilon-amino group of the Lysine side chain with (Glu)-(ga)) [Example 1077]", "criterion met"),
]
